Taken from patent US20230027026A1.

Entries annotated with measured pIC50
target: EGFR (T790M/L858R) (Homo sapiens, UniProt P00533, L858R/T790M); construct: GST; test: EGFR L858R/T790M enzyme inhibition assay (HTRF); conditions: 5 μM ATP, 60 min, read-out: EGFR_L858R T790M_IC50_nM
Sequence (P00533 25-1210 T790M/L858R): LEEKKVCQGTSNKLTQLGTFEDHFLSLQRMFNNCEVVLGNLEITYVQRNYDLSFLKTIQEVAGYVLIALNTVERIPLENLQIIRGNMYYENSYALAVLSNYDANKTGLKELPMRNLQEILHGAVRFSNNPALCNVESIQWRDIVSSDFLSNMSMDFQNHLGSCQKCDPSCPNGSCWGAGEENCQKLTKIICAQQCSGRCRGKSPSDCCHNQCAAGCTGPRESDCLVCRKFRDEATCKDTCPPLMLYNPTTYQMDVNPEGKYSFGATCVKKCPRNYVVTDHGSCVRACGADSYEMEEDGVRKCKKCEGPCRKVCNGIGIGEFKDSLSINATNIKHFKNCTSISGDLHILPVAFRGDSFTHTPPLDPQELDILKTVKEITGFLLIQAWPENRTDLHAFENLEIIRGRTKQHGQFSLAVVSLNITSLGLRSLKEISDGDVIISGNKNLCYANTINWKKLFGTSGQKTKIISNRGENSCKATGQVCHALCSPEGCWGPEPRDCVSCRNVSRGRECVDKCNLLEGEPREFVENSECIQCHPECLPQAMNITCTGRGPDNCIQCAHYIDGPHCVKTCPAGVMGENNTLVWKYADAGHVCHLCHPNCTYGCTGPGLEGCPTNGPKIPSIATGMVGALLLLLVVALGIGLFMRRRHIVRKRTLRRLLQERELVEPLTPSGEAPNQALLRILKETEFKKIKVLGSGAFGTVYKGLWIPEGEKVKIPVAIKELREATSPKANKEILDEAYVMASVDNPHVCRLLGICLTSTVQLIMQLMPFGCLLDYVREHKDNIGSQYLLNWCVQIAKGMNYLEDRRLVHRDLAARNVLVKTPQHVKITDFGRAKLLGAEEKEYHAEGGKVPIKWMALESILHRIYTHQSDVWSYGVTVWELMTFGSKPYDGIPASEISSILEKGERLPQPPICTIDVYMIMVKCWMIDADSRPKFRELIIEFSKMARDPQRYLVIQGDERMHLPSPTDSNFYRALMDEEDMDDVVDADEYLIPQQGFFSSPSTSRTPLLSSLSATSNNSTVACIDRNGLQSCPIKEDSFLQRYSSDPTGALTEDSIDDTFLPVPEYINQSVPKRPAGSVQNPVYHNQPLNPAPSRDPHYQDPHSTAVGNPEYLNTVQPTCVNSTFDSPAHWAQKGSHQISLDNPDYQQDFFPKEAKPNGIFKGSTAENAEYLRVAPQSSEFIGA
Friendly reminder that pIC50 comes from taking -log10 of the concentration in mol/L.

The following compounds have reported results that may help.
Cc1cc(Nc2ncc3c(n2)N(c2cccc(NC(=O)/C=C/CN(C)C)c2)C(=O)N(Cc2ccccc2)C3)sn1: 8.15
C=CC(=O)NC1CCCC(N2C(=O)N(c3ccc(F)cc3)Cc3cnc(Nc4cn(C)nc4Cl)nc32)C1 (centres unmarked): 8.53
Cc1cnc(Nc2ncc3c(n2)N(C2CCCC(NC(=O)/C=C/CN(C)C)C2)C(=O)N(Cc2ccccc2)C3)s1 (centres unmarked): 6.52
C=CC(=O)Nc1cccc(N2C(=O)N(Cc3ccccc3)Cc3cnc(Nc4cn(CC(F)(F)F)nc4C)nc32)c1: 9.00
C=CC(=O)Nc1cccc(N2C(=O)N(Cc3ccccc3)Cc3cnc(Nc4cnn(C)c4C)nc32)c1: 8.62
C=CC(=O)N1CC[C@H](N2C(=O)N(Cc3ccccc3)Cc3cnc(Nc4cn(C)nc4Cl)nc32)C1 (single isomer, unassigned): 6.95

Query: Supply pIC50 measured with EGFR (T790M/L858R) (Homo sapiens, UniProt P00533, L858R/T790M) for CN(C)C/C=C/C(=O)Nc1cccc(N2C(=O)N(Cc3ccccc3)Cc3cnc(Nc4cnn(CCO)c4)nc32)c1 .
Response: 8.30

Query: Supply pIC50 measured with EGFR (T790M/L858R) (Homo sapiens, UniProt P00533, L858R/T790M) for CC(c1ccccc1)N1Cc2cnc(Nc3cnn(C)c3)nc2N(c2cccc(NC(=O)/C=C/CN(C)C)c2)C1=O (racemic) .
Response: 8.40

Query: Supply pIC50 measured with EGFR (T790M/L858R) (Homo sapiens, UniProt P00533, L858R/T790M) for C=CC(=O)Nc1cccc(N2C(=O)N(Cc3ccccc3)Cc3cnc(Nc4cnn(CCOC)c4)nc32)c1 .
Response: 8.70

Query: Supply pIC50 measured with EGFR (T790M/L858R) (Homo sapiens, UniProt P00533, L858R/T790M) for C=CC(=O)N1CC[C@H](N2C(=O)N(c3ccccc3)Cc3cnc(Nc4cn(C)nc4Cl)nc32)C1 .
Response: 6.24

Query: Supply pIC50 measured with EGFR (T790M/L858R) (Homo sapiens, UniProt P00533, L858R/T790M) for C=CC(=O)Nc1cccc(N2C(=O)N(Cc3ccccc3)Cc3cnc(Nc4cnn(C5CC5)c4)nc32)c1 .
Response: 9.00

Query: Supply pIC50 measured with EGFR (T790M/L858R) (Homo sapiens, UniProt P00533, L858R/T790M) for CN(C)C/C=C/C(=O)N(C)c1cccc(N2C(=O)N(Cc3ccccc3)Cc3cnc(Nc4cnn(C)c4)nc32)c1 .
Response: 7.35

Query: Supply pIC50 measured with EGFR (T790M/L858R) (Homo sapiens, UniProt P00533, L858R/T790M) for CN(C)C/C=C/C(=O)Nc1cccc(N2C(=O)N(Cc3ccccc3)Cc3cnc(Nc4cnn(CC(F)(F)F)c4)nc32)c1 .
Response: 8.52

Query: Supply pIC50 measured with EGFR (T790M/L858R) (Homo sapiens, UniProt P00533, L858R/T790M) for Cc1csc(Nc2ncc3c(n2)N(c2cccc(NC(=O)/C=C/CN(C)C)c2)C(=O)N(Cc2ccccc2)C3)n1 .
Response: 8.46

---

target: EGFR (A767_dupASV) expressing Ba/F3 stable cell line (Homo sapiens, UniProt P00533, DUP767-769, cells depend on it); test: Cellular proliferation (Alamar Blue) assay, EGFR A767_dupASV Ba/F3; assay type: cell-based; settings: EGFR A767_dupASV Ba/F3, 72 hr, read-out: A767 IC50
Sequence (P00533 with tags, fused parts or gaps DUP767-769): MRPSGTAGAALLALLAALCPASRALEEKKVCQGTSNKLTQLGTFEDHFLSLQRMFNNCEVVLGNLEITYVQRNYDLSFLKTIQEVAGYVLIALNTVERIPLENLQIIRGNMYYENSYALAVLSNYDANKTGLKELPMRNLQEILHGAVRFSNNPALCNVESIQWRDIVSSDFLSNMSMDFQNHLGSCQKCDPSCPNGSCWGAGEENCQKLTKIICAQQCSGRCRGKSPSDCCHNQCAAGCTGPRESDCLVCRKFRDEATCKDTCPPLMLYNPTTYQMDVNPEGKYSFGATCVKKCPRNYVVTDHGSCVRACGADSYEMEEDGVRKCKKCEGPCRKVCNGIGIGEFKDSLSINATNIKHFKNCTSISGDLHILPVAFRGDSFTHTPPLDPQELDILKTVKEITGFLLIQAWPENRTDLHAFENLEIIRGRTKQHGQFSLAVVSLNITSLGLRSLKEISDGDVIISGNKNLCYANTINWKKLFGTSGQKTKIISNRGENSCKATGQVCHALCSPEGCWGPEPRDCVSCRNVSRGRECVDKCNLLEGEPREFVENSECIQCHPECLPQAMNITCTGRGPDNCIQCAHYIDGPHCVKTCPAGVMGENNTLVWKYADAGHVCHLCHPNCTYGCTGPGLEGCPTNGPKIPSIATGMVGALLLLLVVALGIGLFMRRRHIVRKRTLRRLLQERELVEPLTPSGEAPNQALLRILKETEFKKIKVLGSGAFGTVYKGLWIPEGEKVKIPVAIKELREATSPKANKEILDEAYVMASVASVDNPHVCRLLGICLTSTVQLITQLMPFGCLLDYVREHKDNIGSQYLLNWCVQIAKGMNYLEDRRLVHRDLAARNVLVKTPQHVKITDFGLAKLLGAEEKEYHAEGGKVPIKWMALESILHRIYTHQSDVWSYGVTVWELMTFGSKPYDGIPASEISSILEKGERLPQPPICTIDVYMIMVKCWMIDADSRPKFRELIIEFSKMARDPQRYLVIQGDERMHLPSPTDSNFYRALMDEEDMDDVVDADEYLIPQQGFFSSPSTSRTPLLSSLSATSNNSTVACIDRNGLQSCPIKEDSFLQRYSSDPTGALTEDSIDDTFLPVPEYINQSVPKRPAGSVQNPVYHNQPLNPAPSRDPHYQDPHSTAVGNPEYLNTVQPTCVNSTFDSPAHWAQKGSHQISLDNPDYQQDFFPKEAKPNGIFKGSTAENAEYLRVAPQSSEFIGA
endpoint.name: log10(GI50) (log10 of the value in nM)
Short version: log10 scale, GI50, nM.

The following compounds have reported results that may help.
CN(C)C/C=C/C(=O)Nc1cccc(N2C(=O)N(Cc3ccccc3)Cc3cnc(Nc4cn(CCF)nc4Cl)nc32)c1 [Compound 93]: 2.03
CN(C)C/C=C/C(=O)Nc1cccc(N2C(=O)N(Cc3ccccc3)Cc3cnc(Nc4cnc(N5CCOCC5)nc4)nc32)c1 [Compound 55]: 3.22
COC/C=C/C(=O)Nc1cccc(N2C(=O)N(Cc3ccccc3)Cc3cnc(Nc4cn(C)nc4F)nc32)c1 [Compound 83]: 3.00
CN(C)C/C=C/C(=O)Nc1cccc(N2C(=O)N(Cc3ccc(F)cc3)Cc3cnc(Nc4cnn(C)c4)nc32)c1 [Compound 2]: 2.62

Query: Answer with the recorded log10(GI50) of C=CC(=O)Nc1cccc(N2C(=O)N(Cc3ccccc3)Cc3cnc(Nc4cccc5c4CCN5C)nc32)c1 [Compound 79] only.
Response: 1.95

Query: Answer with the recorded log10(GI50) of CN(C)C/C=C/C(=O)Nc1cccc(N2C(=O)N(Cc3ccccc3)Cc3cnc(Nc4cnc5c(cnn5C)c4)nc32)c1 [Compound 53] only.
Response: 2.68

---

Entries annotated with measured GI50
molecular target: EGFR(D770_N771insSVD) expressing Ba/F3 stable cell line (Homo sapiens, UniProt P00533, DUP768-770, cells depend on it); test: Cellular proliferation (Alamar Blue) assay, EGFR D770_N771insSVD Ba/F3; assay type: cell-based; conditions: EGFR D770_N771insSVD Ba/F3, 72 hr, read-out: D770 IC50
Sequence (P00533 with tags, fused parts or gaps DUP768-770): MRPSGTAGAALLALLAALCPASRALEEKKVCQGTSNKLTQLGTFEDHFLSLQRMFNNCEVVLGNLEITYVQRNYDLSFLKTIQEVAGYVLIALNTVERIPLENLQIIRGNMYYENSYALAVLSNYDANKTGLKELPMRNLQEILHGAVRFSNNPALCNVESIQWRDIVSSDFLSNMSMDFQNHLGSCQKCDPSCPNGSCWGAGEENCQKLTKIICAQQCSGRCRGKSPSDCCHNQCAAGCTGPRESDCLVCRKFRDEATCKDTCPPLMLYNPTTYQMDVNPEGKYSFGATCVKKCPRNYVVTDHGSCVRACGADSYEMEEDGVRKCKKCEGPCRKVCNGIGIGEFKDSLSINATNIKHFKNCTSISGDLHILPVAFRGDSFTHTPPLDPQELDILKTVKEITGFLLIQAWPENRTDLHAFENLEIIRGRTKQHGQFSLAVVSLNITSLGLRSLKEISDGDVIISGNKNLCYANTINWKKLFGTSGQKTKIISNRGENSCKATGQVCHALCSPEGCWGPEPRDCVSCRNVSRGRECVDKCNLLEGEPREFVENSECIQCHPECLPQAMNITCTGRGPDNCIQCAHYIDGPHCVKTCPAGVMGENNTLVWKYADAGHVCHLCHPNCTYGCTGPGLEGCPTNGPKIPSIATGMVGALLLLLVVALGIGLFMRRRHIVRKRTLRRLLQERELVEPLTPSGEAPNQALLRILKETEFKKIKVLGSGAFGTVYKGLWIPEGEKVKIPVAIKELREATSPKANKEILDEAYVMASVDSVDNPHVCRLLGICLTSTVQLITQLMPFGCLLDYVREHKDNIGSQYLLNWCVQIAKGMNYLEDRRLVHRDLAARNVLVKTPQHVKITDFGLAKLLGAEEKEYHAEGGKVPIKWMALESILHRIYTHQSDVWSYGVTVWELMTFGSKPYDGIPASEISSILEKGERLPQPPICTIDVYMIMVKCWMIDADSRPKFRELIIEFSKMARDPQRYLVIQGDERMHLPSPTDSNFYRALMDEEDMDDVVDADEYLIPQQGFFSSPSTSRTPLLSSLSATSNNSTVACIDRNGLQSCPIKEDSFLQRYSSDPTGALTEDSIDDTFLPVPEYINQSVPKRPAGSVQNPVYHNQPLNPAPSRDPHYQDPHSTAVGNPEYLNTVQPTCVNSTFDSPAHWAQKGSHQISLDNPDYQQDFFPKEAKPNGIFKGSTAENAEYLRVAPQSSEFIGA
Respond with the bare value in nM.

CN(C)C/C=C/C(=O)Nc1ccc(Cl)c(N2C(=O)N(Cc3ccccc3)Cc3cnc(Nc4cn(C)nc4Cl)nc32)c1 [Compound 86]: 900
CC#CC(=O)Nc1cccc(N2C(=O)N(c3ccccc3)Cc3cnc(Nc4cn(C)nc4Cl)nc32)c1 [Compound 125]: 338
CN(C)C/C=C/C(=O)Nc1cccc(N2C(=O)N(Cc3ccccc3)Cc3cnc(Nc4ccn(C)n4)nc32)c1 [Compound 52]: 341

Please turn your attention to the following entry.
Query: Answer with the recorded GI50 of CN(C)C/C=C/C(=O)Nc1cccc(N2C(=O)N(Cc3ccc(F)cc3F)Cc3cnc(Nc4cn(C)nc4Cl)nc32)c1 [Compound 61] only.
Response: 105

---

biological target: HER2 (A775_G776insYVMA) expressing Ba/F3 stable cell line (Homo sapiens, UniProt P04626, DUP772-775, cells depend on it); assay: Cellular proliferation (Alamar Blue) assay, HER2 YVMA Ba/F3; format: cell-based; conditions: HER2 A775_G776insYVMA Ba/F3, 72 hr, read-out: YVMA IC50
Sequence (P04626 with tags, fused parts or gaps DUP772-775): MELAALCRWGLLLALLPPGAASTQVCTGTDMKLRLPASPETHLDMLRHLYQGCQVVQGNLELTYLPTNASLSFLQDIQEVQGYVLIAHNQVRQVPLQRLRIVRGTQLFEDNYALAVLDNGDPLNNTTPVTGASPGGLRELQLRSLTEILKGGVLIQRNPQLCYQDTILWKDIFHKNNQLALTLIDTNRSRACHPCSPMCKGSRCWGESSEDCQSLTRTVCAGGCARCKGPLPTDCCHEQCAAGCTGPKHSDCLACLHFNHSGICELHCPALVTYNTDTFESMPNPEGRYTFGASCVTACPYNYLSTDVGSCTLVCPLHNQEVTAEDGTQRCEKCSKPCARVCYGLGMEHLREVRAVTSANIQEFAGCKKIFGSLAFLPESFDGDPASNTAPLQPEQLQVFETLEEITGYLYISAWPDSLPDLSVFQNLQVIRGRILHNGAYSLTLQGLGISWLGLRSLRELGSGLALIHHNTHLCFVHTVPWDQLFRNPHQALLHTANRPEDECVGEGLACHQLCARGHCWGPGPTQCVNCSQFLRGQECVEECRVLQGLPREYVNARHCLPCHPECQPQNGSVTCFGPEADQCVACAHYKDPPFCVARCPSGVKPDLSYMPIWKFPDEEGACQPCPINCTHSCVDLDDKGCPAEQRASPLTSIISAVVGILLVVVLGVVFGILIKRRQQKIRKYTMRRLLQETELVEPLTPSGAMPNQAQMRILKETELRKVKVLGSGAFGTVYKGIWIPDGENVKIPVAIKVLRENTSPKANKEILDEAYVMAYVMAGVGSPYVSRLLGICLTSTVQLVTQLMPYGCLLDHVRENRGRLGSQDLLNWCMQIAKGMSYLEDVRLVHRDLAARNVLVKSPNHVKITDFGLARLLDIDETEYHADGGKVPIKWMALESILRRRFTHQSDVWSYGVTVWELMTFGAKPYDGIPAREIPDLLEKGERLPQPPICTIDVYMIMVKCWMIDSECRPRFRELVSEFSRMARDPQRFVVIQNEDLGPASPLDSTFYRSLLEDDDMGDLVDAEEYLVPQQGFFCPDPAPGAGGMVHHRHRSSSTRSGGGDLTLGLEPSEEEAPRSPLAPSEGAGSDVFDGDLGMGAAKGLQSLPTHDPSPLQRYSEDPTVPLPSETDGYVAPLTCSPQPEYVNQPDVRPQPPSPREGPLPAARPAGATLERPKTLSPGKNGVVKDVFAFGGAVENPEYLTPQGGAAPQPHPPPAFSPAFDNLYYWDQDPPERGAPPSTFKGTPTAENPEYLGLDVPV
Entries annotated with measured GI50
Respond with the bare value in nM.

The following compounds have reported results that may help.
C=CC(=O)Nc1cccc(N2C(=O)N(Cc3ccccc3)Cc3cnc(Nc4cn(CC(F)(F)F)nc4C)nc32)c1: 11
CN(C)C/C=C/C(=O)Nc1cccc(N2C(=O)N(c3ccccc3)Cc3cnc(Nc4ccc(N5CCN(C)CC5)nc4)nc32)c1: 3300
C=CC(=O)Nc1cccc(N2C(=O)N(Cc3ccc(C)cc3C)Cc3cnc(Nc4cn(C)nc4Cl)nc32)c1: 682

Query: Answer with the recorded GI50 of Cc1ccc(CN2Cc3cnc(Nc4cn(C)nc4Cl)nc3N(c3cccc(NC(=O)/C=C/CN(C)C)c3)C2=O)c(C)c1 only.
Response: 632

---

target: EGFR (T790M/L858R) (Homo sapiens, UniProt P00533, L858R/T790M); construct: GST; assay: EGFR L858R/T790M enzyme inhibition assay (HTRF); conditions: 5 μM ATP, 60 min, read-out: EGFR_L858R T790M_IC50_nM
endpoint.name: pIC50
Friendly reminder that pIC50 comes from taking -log10 of the concentration in mol/L.

The following compounds have reported results that may help.
C=CC(=O)Nc1cccc(N2C(=O)N(c3ccc(F)cc3)Cc3cnc(Nc4cnn(C)c4)nc32)c1 [Compound 17]: 9.30
Cc1c(Nc2ncc3c(n2)N(c2cccc(NC(=O)/C=C/CN(C)C)c2)C(=O)N(Cc2ccccc2)C3)cnn1C [Compound 11]: 8.70
C=CC(=O)Nc1cccc(N2C(=O)N(Cc3ccccc3)Cc3cnc(Nc4nc(C)cs4)nc32)c1 [Compound 25]: 8.52
CN(C)C/C=C/C(=O)Nc1cccc(N2C(=O)N(Cc3ccccc3)Cc3cnc(Nc4ccc5cnn(C)c5c4)nc32)c1 [Compound 45]: 7.96
C=CS(=O)(=O)Nc1cccc(N2C(=O)N(Cc3ccccc3)Cc3cnc(Nc4cnn(C)c4)nc32)c1 [Compound 47]: 9.05

Query: Answer with the recorded pIC50 of CC(C)n1cc(Nc2ncc3c(n2)N(c2cccc(NC(=O)/C=C/CN(C)C)c2)C(=O)N(Cc2ccccc2)C3)cn1 [Compound 9] only.
Response: 8.40

Query: Answer with the recorded pIC50 of C=CC(=O)Nc1cccc(N2C(=O)N(Cc3ccc(F)cc3)Cc3cnc(Nc4cnn(C)c4)nc32)c1 [Compound 3] only.
Response: 7.89

Query: Answer with the recorded pIC50 of C=CC(=O)Nc1cccc(N2C(=O)N(Cc3ccccc3)Cc3cnc(Nc4cnn(CCO)c4)nc32)c1 [Compound 13] only.
Response: 9.00
